For each entry below, report its TGI value.
Tested on: RPMI-8226 leukemia
Assay: NCI tumour cell line growth inhibition, 48 h

Prompt line: What value of TGI has been reported for the following compound? NCCN=C(Nc1ccccc1)Nc1ccccc1
Response line: > 100 µM

Prompt line: Would you mind doing CN(C)Cc1cc(C(=O)/C=C/c2ccccc2Cl)cc(CN(C)C)c1O as well?
Response line: 56.5 µM

Prompt line: Would you mind doing CCCCCCCCCCCCCCCCCC(=O)O[C@H](COC(=O)CCCCCCCCCCC)COC(=O)CCCCCCCCCCCCCCC as well?
Response line: > 100 µM

Prompt line: Would you mind doing C=CCSS/C=C/CS(=O)CC=C (stereo unspecified) as well?
Response line: 48.8 µM

Prompt line: Would you mind doing COc1ccc2[nH]c3c4c(ccc3c2c1)C(=O)C=CC4=O as well?
Response line: 10.4 µM

Prompt line: Would you mind doing COc1cccc(/C(COc2ccc3c(c2)oc(=O)c2cc(OC)ccc23)=N/O)c1 as well?
Response line: > 100 µM

Prompt line: Would you mind doing O=S1OC2(c3ccccc3-c3ccccc32)c2ccccc21 (stereo unspecified) as well?
Response line: > 100 µM

Prompt line: Would you mind doing O=C1NC(N/N=C/C(O)C(O)C(O)CO)=N/C1=C\c1ccco1 (stereo unspecified) as well?
Response line: > 100 µM

Prompt line: Would you mind doing CC(C)N=c1cc2n(-c3ccc(Cl)cc3)c3ccccc3nc-2cc1Nc1ccc(Cl)cc1 as well?
Response line: 2.62 µM

Prompt line: Would you mind doing COc1cccc(-n2c3nc(=O)n(C)c(=O)c-3nc3ccccc32)c1 as well?
Response line: > 100 µM

Prompt line: Would you mind doing Cc1cn(C(Cc2ccccc2)OCCO)c(=O)[nH]c1=O (stereo unspecified) as well?
Response line: > 100 µM

---

For each entry below, report its TGI value.
System: MALME-3M melanoma
Experiment: NCI tumour cell line growth inhibition, 48 h

Prompt line: GET /values?readout=TGI&system=MALME-3M melanoma&item= CC1=NN2C(=N)/C(=C/c3ccco3)C(=O)N=C2S1
Response line: > 100 µM

Prompt line: Would you mind doing NC(=O)NNC(=O)c1nc[nH]c1[N+](=O)[O-] as well?
Response line: > 100 µM

Prompt line: Would you mind doing Cc1ccc(-c2cc(N)n(-c3nc4c(c(=O)n(C)c(=O)n4C)n3C)n2)cc1 as well?
Response line: > 100 µM

Prompt line: Would you mind doing COc1ccc(/C=N/N=C(\N)NO)c(O)c1 as well?
Response line: > 10 µM

Prompt line: Would you mind doing COC(=O)CCC(=O)CC1CC(=O)C2CCCN12 (stereo unspecified) as well?
Response line: > 100 µM

Prompt line: Would you mind doing C/C=C/C(O)P1(=O)N(Cc2ccccc2)[C@@H]2CCCC[C@H]2N1Cc1ccccc1 (stereo partly specified) as well?
Response line: > 25 µM

Prompt line: Would you mind doing CCC1(C(=O)OC(C)(C)C)OC12C(C)CCCC2C (stereo unspecified) as well?
Response line: > 100 µM

Prompt line: Would you mind doing N=C(N)c1ccc(N=Nc2c(O)ccc3c2[nH]c2ccccc23)cc1 as well?
Response line: > 80.8 µM

Prompt line: Would you mind doing COc1ccc2[nH]c3c4c(ccc3c2c1)C(=O)C=CC4=O as well?
Response line: 17.4 µM

Prompt line: Would you mind doing CC(C)CNC(=O)O as well?
Response line: > 100 µM

Prompt line: Would you mind doing CCCCOC(=O)NC(=O)c1cn(CCCOC(=O)NCCCCCCNC(=O)OCCCn2cc(C(=O)NC(=O)OCCCC)c(=O)[nH]c2=O)c(=O)[nH]c1=O as well?
Response line: > 100 µM

Origin of the recorded values: PubChem BioAssay (NCI)
